Record: pIC50 reported on PIK3CA (human).
pIC50: −log10 of the molar value.
Endpoint label: pIC50

Check out these entries, answers already filled in.
[
  {
    "Molecule": "CNc1nc(C)c2cc(-c3cnn(CC(F)F)c3)c(=O)n(C3CCCC3)c2n1",
    "pIC50": 7.34
  },
  {
    "Molecule": "CNc1nc(C)c2cc(-c3cnc4[nH]ccc4c3)c(=O)n(C3CCCC3)c2n1",
    "pIC50": 9.12
  },
  {
    "Molecule": "COc1ncc(-c2cc3c(C)nc(N)nc3n(C3CCOCC3)c2=O)cc1F",
    "pIC50": 8.84
  },
  {
    "Molecule": "CNc1nc(C)c2cc(-c3cnc(N)c(OC[C@H](C)N)n3)c(=O)n(C3CCCC3)c2n1",
    "pIC50": 6.40
  }
]

I: COc1ccc(-c2cc3c(C)nc(N)nc3n([C@H]3CC[C@H](OC[C@@H](O)CO)CC3)c2=O)cn1
II: Cc1nc(N)nc2c1cc(-c1ccc(N3CCCC3)nc1)c(=O)n2[C@H]1CC[C@H](O)CC1
Prompt: Min pIC50? I | II Reply with the label of the item you choose.
Completion: II
(II: 7.72, I: 8.17)
